B1: Twister Ribozyme (parent)
chain: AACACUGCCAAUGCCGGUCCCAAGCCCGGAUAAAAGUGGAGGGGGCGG

# Variants of: B1
# assay.procedure: self-cleavage, relative activity (ratio to wild type); higher = more cleavage; co-transcriptional
observation.type: self-cleavage
Answer field: number only, no words.

Query :: Tell me self-cleavage reported for AACACUGCCAGUGCCGGUCCCAAGACCGGAUAAAAGUGGAGGGGGCGG
Result :: 0.13

Query :: Specify reported self-cleavage for the variant shown: AACAUUGCCAAUGCCGGUCCCAAGACCGGAUAAAAGUGGAGGGGGCGG
Result :: 0.0792

Query :: State its self-cleavage: AGCACUGCCGAUGCCGGUCCCAAGCCCGGAUAAAAGUGGAGGGGGCGG
Result :: 0.312

Query :: Recall and state the measured self-cleavage for AACACUCCCAAUGCCGGUCCCAAGGCCGGAUAAAAGUGGAGGGGGCGG .
Result :: 0.218

Query :: Output measured self-cleavage for this item: AUCACUGCCAAUGCCGGUCCCAAGCCCGGAUAAAAGCGGAGGGGGCGG
Result :: 0.114

Query :: Give the reported self-cleavage for this variant. AACACUGCAAAUGCCGGUCCCAAGCCCGGUUAAAAGUGGAGGGGGCGG
Result :: 0.725

Query :: Report self-cleavage, nothing else, for this variant: AACACUGCCAAUGCCGGUCCCAAGGCCGGAUAAAAGUGGAGGGGGCGA
Result :: 0.193

Query :: In one line, give reported self-cleavage of the entry AACACUGCCACUGCCGGUCUCAAGCCCGGAUAAAAGUGGAGGGGGCGG .
Result :: 0.91

Query :: Give reported self-cleavage value for AACACUGCCAAUGCCGGUCCCCAGCCCGGAUAAAAGUGGAGGUGGCGG
Result :: 0.273

Query :: Name the recorded self-cleavage of the item AACACUGCUAAUGCCGGUCCCAAGCCCGGAUAAACGUGGAGGGGGCGG in your answer.
Result :: 0.636

Query :: Fill in reported self-cleavage for this entry: AACACUGCCAAUGCCGGUCCGAAGCCCGGAUAAACGUGGAGGGGGCGG
Result :: 0.0454

Query :: // Input: AACACUGCCAAUGCCGGUCCUAAGCACGGAUAAAAGUGGAGGGGGCGG . Output its self-cleavage only.
Result :: 0.0796

Query :: Read the entry AACACUGCCAAUGCCCGUCCCAAGCCCGGAUAAAAGAGGAGGGGGCGG and write its reported self-cleavage.
Result :: 0.165

Query :: Supply recorded self-cleavage for AAAACUGCCAAUGCCGGUCCCAAGCCCGGAUAUAAGUGGAGGGGGCGG here.
Result :: 0.203

Query :: Name the recorded self-cleavage of the item AACACUGCCAAUGCCGGUCCCAAGCCGGGAUAAAAGUGGAGGGGCCGG in your answer.
Result :: 0.0921

Query :: Quickly give me recorded self-cleavage for AACACCGUCAAUGCCGGUCCCAAGCCCGGAUAAAAGUGGAGGGGGCGG
Result :: 0.174

Query :: Tell me its self-cleavage given AACACUGCCAAUGCCGGUCCCAAGCCCGGGUAAAAGUGGAGGGGACGG as the entry.
Result :: 0.901

Query :: In one line, give reported self-cleavage of the entry AACACUGCCAGUGCCGGUCCCAACCCCGGAUAAAAGUGGAGGGGGCGG .
Result :: 0.0551

Query :: Tell me self-cleavage reported for AACACUGCCAAUGCCGGUCCCAAGCCCGGAUAGAAGUGAAGGGGGCGG
Result :: 0.362

Query :: Quote self-cleavage reported for AACACUGCCAAUGCCGGUCCCCAGCCCGGUUAAAAGUGGAGGGGGCGG please.
Result :: 1

Query :: Respond only with self-cleavage recorded for AACACUGCCAAUGCCGGGCCCAAGCCCGGAUUAAAGUGGAGGGGGCGG
Result :: 0.0793

Query :: Respond only with self-cleavage recorded for AACACUGCCAAUGCCGGACCCAAGACCGGAUAAAAGUGGAGGGGGCGG
Result :: 0.0777
